Experiment: Selectivity index, ratio of EC50 for mouse J774 cells to EC50 for antitrypanosomal activity against Trypanosoma brucei brucei 427
Assay type: toxicity
Conditions: read-out: Ratio EC50
METRIC: selectivity ratio
Give the value as a plain number.

# count of solved cases: 4
compound="CC1CS(=O)(=O)CCN1/N=C/c1ccc([N+](=O)[O-])o1 (stereo not drawn)" metric="selectivity ratio" reported_value=10
compound="COC(=O)C1=C(C(=O)c2ccc(Cl)cc2)C2CSC(CS1)N2Cc1ccc(OC)cc1 (stereo not drawn)" metric="selectivity ratio" reported_value=0.6
compound="O=C(OCc1c(-c2ccccc2)no[n+]1[O-])C1=C(C(=O)c2ccc(Cl)cc2)C2CSC(CS1)N2Cc1ccccc1 (stereo not drawn)" metric="selectivity ratio" reported_value=1.2
compound="CCOC(=O)C1=C(C(=O)OCC)C2CSC(CS1)N2Cc1ccc(F)cc1 (stereo not drawn)" metric="selectivity ratio" reported_value=3.6

With those in mind, consider the next compound.
Give the measured selectivity ratio for CCOC(=O)C1=C(C(=O)OCC)C2CSC(CS1)N2Cc1ccccc1 (stereo not drawn)
10

====

Test system: J774
Assay: Cytotoxicity against mouse J774 cells assessed as reduction in cell viability after 24 hrs by WST-1 assay
Type: cell-based
Conditions: J774, 24 h
METRIC: EC50 (µM)
Provide only the numeric value, understood in µM.

compound="CCOC(=O)C1=C(C(=O)OCC)C2CSC(CS1)N2Cc1ccccc1 (stereo not given)" experimental_target=J774 measurement_unit=µM reported_value=200

With those in mind, consider the next compound.
Give the measured EC50 for COC(=O)C1=C(C(=O)c2ccc(Cl)cc2)C2CSC(CS1)N2Cc1ccc(OC)cc1 (stereo not given)
9.7

====

Biological target: Thioredoxin glutathione reductase (Echinococcus granulosus)
Experiment: Inhibition of wild type recombinant Echinococcus granulosus TGR at 50 uM preincubated for NADPH followed by compound addition and measured after 3 mins by spectrophotometric analysis relative to control
// inhibition lookup, one value per entry
Provide only the numeric value, understood in %.

molecule="COC(=O)C1=C(C(=O)c2ccc(Cl)cc2)C2CSC(CS1)N2CCO (centres undefined)" reported_value=0
molecule="CCOC(=O)C1=C(C(=O)OCC)C2CSC(CS1)N2Cc1ccc(OC)cc1 (centres undefined)" reported_value=36

Give the measured inhibition for O=C(OCc1c(-c2ccccc2)no[n+]1[O-])C1=C(C(=O)c2ccc(Cl)cc2)C2CSC(CS1)N2Cc1ccccc1 (centres undefined)
0

Give the measured inhibition for COC(=O)C1=C(C(=O)c2ccc(Cl)cc2)C2CSC(CS1)N2Cc1ccccc1 (centres undefined)
0

Give the measured inhibition for CCOC(=O)C1=C(C(=O)OCC)C2CSC(CS1)N2Cc1ccc(F)cc1 (centres undefined)
41

Give the measured inhibition for CCOC(=O)C1=C(C(=O)OCC)C2CSC(CS1)N2CCCC(=O)OCc1c(-c2ccccc2)no[n+]1[O-] (centres undefined)
0

Give the measured inhibition for CCOC(=O)C1=C(C(=O)OCC)C2CSC(CS1)N2Cc1ccccc1 (centres undefined)
0

Give the measured inhibition for CCOC(=O)C1=C(C(=O)OCC)C2CSC(CS1)N2Cc1ccc(Cl)cc1 (centres undefined)
0

Give the measured inhibition for COC(=O)C1=C(C(=O)c2ccc(Cl)cc2)C2CSC(CS1)N2Cc1ccc(OC)cc1 (centres undefined)
29

====

Experiment: Selectivity index, ratio of EC50 for mouse J774 cells to EC50 for antitrypanosomal activity against Trypanosoma brucei brucei 427
Type: toxicity
Details: read-out: Ratio EC50
// selectivity ratio lookup, one value per entry

# count of solved cases: 2
molecule="CCOC(=O)C1=C(C(=O)OCC)C2CSC(CS1)N2Cc1ccc(Cl)cc1 (stereo not drawn)" metric="selectivity ratio" reported_value="> 25"
molecule="CCOC(=O)C1=C(C(=O)OCC)C2CSC(CS1)N2Cc1ccc(OC)cc1 (stereo not drawn)" metric="selectivity ratio" reported_value="> 11"

With those in mind, consider the next molecule.
Give the measured selectivity ratio for CCOC(=O)C1=C(C(=O)OCC)C2CSC(CS1)N2CCCC(=O)OCc1c(-c2ccccc2)no[n+]1[O-] (stereo not drawn)
> 71

====

Tested on: J774
Test: Cytotoxicity against mouse J774 cells assessed as reduction in cell viability after 24 hrs by WST-1 assay
Format: cell-based
Details: J774, 24 h
pEC50: −log10 of the molar value.
METRIC: pEC50

# count of solved cases: 2
compound="CCOC(=O)C1=C(C(=O)OCC)C2CSC(CS1)N2Cc1ccc(Cl)cc1 (stereo not drawn)" experimental_target=J774 reported_value="< 3.70"
compound="CCOC(=O)C1=C(C(=O)OCC)C2CSC(CS1)N2Cc1ccc(OC)cc1 (stereo not drawn)" experimental_target=J774 reported_value="< 3.70"

With those in mind, consider the next compound.
Provide pEC50, recorded with J774, of CCOC(=O)C1=C(C(=O)OCC)C2CSC(CS1)N2CCCC(=O)OCc1c(-c2ccccc2)no[n+]1[O-] (stereo not drawn)
< 3.70
